Values were extracted from ChEMBL document CHEMBL1157779.

TD50 at 4 h listing for selected compounds.
# ASSAY OVERVIEW: Toxicity in ip dosed albino mouse after 4 hrs by rotarod test
# Assay type: organism-based
# CONDITION SUMMARY: in vivo
REPORTED ENDPOINT: TD50 at 4 h

> print(dat)
                    structure.smiles.string  reported.endpoint       result
1  CC(=O)N[C@@H](C(=O)NCc1ccc(OCc2cccc(F)c2)cc1)C(C)(C)C        TD50 at 4 h    300 mg/kg
2  CC(=O)N[C@@H](C(=O)NCc1ccc(OCc2cccc(F)c2)cc1)C(C)C        TD50 at 4 h  > 300 mg/kg
3  COC[C@@H](NC(C)=O)C(=O)NCc1ccc(C#Cc2cccc(F)c2)cc1        TD50 at 4 h    100 mg/kg
4    CC(=O)NCC(=O)NCc1ccc(OCc2cccc(F)c2)cc1        TD50 at 4 h  > 300 mg/kg
